Can you tell me z-score for the items I'm about to list?
method-description: CREB reporter modulators under forskolin, primary screen, cell-based, PC12, CRE-LacZ reporter, forskolin-stimulated (AID 1146);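 further: PC12 cells with 6xCRE LacZ reporter stimulated by forskolin 10 µM; beta-galactosidase reporter signal reflecting CREB driven transcription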
experimental-conditions: luminescence, 4.5 h, higher = more signal, called active from +8 up or from −8 down
Give bare numbers.

compound	z-score
O=[N+]([O-])c1ccc(C[n+]2ccc3ccc(O)cc3c2)o1	-1.3
CO[C@H]1COC(=O)[C@H](Cc2ccccc2)NC(=O)CC=C[C@@H](C)[C@H](OC)COC(=O)CC=C[C@@H]1C	-1.15
COC(=O)[C@@]1(Cc2ccccc2N=[N+]=[N-])N=C(c2ccc(OCCCO)cc2)O[C@H]1c1ccccc1CN=[N+]=[N-]	-0.412
[N-]=[N+]=NCc1ccccc1[C@H]1OC(c2ccc(OCCCO)cc2)=N[C@@]1(Cc1ccccc1N=[N+]=[N-])C(=O)NCc1ccccc1	-0.676
CCCC=C(CCC)[C@@H](NS(=O)(=O)c1ccc(C(F)(F)F)cc1)c1ccc(-c2ccccc2)cc1	0.486

Hi, could you look up z-score for each item in my list?
1. COCCOC(=O)N1C(=O)[C@@]2(c3cc(C#CC4=CCCCC4)ccc31)[C@H](C(=O)NC[C@H](O)c1ccccc1)[C@H]1C(=O)O[C@H](c3ccccc3)[C@H](c3ccccc3)N1[C@@H]2c1ccccc1OCCO
2. COC(=O)C[C@H]1O[C@]2(C(=O)N(Cc3ccccc3)c3ccc(I)cc32)[C@@H](C)[C@@H]1[Si](C)(C)c1ccc(OC)cc1

-0.99
-0.522

====

tested-on: Torsin-1A (Homo sapiens) (UniProt O14656)
Sequence (O14656 whole entry, looked up): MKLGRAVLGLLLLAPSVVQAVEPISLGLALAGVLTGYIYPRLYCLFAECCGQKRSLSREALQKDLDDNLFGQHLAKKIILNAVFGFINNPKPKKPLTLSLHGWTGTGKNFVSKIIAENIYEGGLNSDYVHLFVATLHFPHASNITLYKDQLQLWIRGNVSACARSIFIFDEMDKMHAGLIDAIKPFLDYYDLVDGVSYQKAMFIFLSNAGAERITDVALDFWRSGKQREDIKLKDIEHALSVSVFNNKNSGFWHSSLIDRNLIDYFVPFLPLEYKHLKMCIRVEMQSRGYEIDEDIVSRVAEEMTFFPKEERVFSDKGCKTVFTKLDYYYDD
method-description: torsin A binders from cell lysate, primary screen, small-molecule microarray, wild-type, 635/667 nm (AID 1149)
experimental-conditions: COS7 hTOR1A-WT lysate, 635 nm fluorescence, higher = more signal
measured-metric: composite z-score
Answers are plain numbers.

Some compounds with recorded composite z-score:
compound	composite z-score
C=CCN1C(=O)[C@]2(O[C@H](CCn3cc(CCO)nn3)[C@@H]([Si](C)(C)c3ccc(OC)cc3)[C@@H]2C)c2cc(NC(=O)c3ccc(OC)cc3)ccc21	1.06
CCCNC(=O)[C@@H]1c2ccccc2C(=O)N(C2CCCCC2)[C@H]1c1ccc(CO)cc1	-0.244
C=CCC(OC(C)=O)[C@@H]1[C@@H](N(Cc2ccc(-c3cccc(C(F)(F)F)c3)o2)C(=O)Cc2ccc(F)cc2)c2cc(OCCCO)ccc2N1C(=O)c1ccc(-c2ccccc2)cc1 (stereo partly drawn)	-0.53

Hi, could you look up composite z-score for each item in my list?
1. N#Cc1ccc(NN2C(C(O)CCc3ccccc3)C=CC3C(=O)N(c4ccccc4)C(=O)C32)cc1 (stereo not drawn)
2. O=C1O[C@@H](c2ccccc2)[C@@H](c2ccccc2)N2[C@@H](c3ccccc3OCCO)[C@]3(C(=O)Nc4ccc(C#CC5=CCCCC5)cc43)[C@@H](C(=O)O)[C@H]12
3. O=C1O[C@@H](c2ccccc2)[C@@H](c2ccccc2)N2[C@@H](c3ccc(OCCO)cc3)[C@]3(C(=O)Nc4ccc(C#CCCO)cc43)[C@@H](C(=O)N3CCN(c4ncccn4)CC3)[C@H]12
4. NC(=O)NCC#Cc1ccc2c(c1)[C@]1(C(=O)N2)[C@H](C(N)=O)[C@H]2C(=O)O[C@H](c3ccccc3)[C@H](c3ccccc3)N2[C@@H]1c1ccccc1OCCO
5. COC(=O)[C@@]1(Cc2ccc(OC)cc2)[C@H]2c3cc(C(=O)N(C)C)n(Cc4ccc(C)c(F)c4F)c3C[C@H]2CN1C(=O)c1ccccc1

[-0.0047, 0.13, 0.376, 0.247, -0.124]
